# System: MCF7
# method: Cytotoxicity against human MCF7 cells after 72 hrs by MTT assay
# Format: functional, cell-based
Active and inactive are the calls of the source. The rule behind the calls is not given here. Numbered stars: 1 amine (or outer) side, 2 acyl side, 3 side chain; on linkers, the order of the positions; unused ones are H or OH. Bridge positions count the residues as written; N and C are the ends. Square brackets hold non-standard residues; d marks the D form. Peptide text beside a SMILES is read from it. * marks the point of attachment. X1 = CO[C@@H]1CC[C@@H](C(=O)[*:2])N1[*:1]; NMeY = CN[C@@H](Cc1ccc(O)cc1)C(=O)O; Tigloyl = C/C=C(\C)C(=O)*; NHCH2CH2OH = OCCN*

>  <compound>
C/C=C(\C)C(=O)N[C@@H](CCC(N)=O)C(=O)N[C@@H]1C(=O)N[C@@H](CCC(=O)NCCO)C(=O)N2CCC[C@H]2C(=O)N[C@@H](Cc2ccccc2)C(=O)N(C)[C@@H](Cc2ccc(O)cc2)C(=O)N[C@@H](C)C(=O)O[C@@H]1C (Tigloyl-QTE(NHCH2CH2OH)PF[NMeY]A; ester 2-C)

>  <Activity>
inactive

$$$$
>  <compound>
C/C=C(\C)C(=O)N[C@@H](CCC(N)=O)C(=O)N[C@@H]1C(=O)N[C@@H](CCC(=O)NCCO)C(=O)N2[C@H](OC)CC[C@H]2C(=O)N[C@@H](Cc2ccccc2)C(=O)N(C)[C@@H](Cc2ccc(O)cc2)C(=O)N[C@@H](C)C(=O)O[C@@H]1C (Tigloyl-QTE(NHCH2CH2OH)[X1]F[NMeY]A; ester 2-C)

>  <Activity>
inactive

$$$$
>  <compound>
C/C=C(\C)C(=O)N[C@@H](CCC(N)=O)C(=O)N[C@@H]1C(=O)N[C@@H](CCC(=O)NCCO)C(=O)N[C@H]2CC[C@@H](O)N(C2=O)[C@@H](Cc2ccccc2)C(=O)N(C)[C@@H](Cc2ccc(O)cc2)C(=O)N[C@@H](C)C(=O)O[C@@H]1C

>  <Activity>
inactive

$$$$
>  <compound>
C/C=C(\C)C(=O)N[C@@H](CCC(N)=O)C(=O)N[C@@H]1C(=O)N[C@@H](CCC(=O)NCCO)C(=O)N[C@H]2CC[C@@H](OC)N(C2=O)[C@@H](Cc2ccccc2)C(=O)N(C)[C@@H](Cc2ccc(O)cc2)C(=O)N[C@@H](C)C(=O)O[C@@H]1C

>  <Activity>
inactive

$$$$
